Assayed target: Luciferin 4-monooxygenase (Photinus pyralis)
Protocol description: qHTS profiling assay for firefly luciferase inhibitor/activator using purifed enzyme and Km concentrations of substrates (counterscreen for miR-21 project); further: nearly all actives have a fitted effect of over 55% in size
Cond: purified FLuc, luminescence inhibition; series mostly up to 57.5 µM
Screen size: about 360,000 compounds; about 25,000 (6.9%) were called active. Another 9% or so got no clear call; they are omitted. The call rests on the fitted dose curve; in most records, active means well fitted inhibition curve with a large enough effect; inconclusive means small, poorly fitted or top-dose-only effect; inactive means flat fitted curve, though single readings scatter. The entries come from a sample that favours actives as a whole.
Outcome codes: active, inactive

[
  {
    "Compound": "COc1ccc(-c2cn3c(n2)sc2cc(C(=O)Nc4ccccc4F)ccc23)cc1",
    "Discrete label": "inactive"
  },
  {
    "Compound": "CC(=O)Nc1cccc(NC(=O)CSc2nccn2Cc2ccc3c(c2)OCO3)c1",
    "Discrete label": "inactive"
  },
  {
    "Compound": "Cn1nnc(NC(=S)NC(=O)c2ccccc2)n1",
    "Discrete label": "inactive"
  },
  {
    "Compound": "Nc1ncc(-c2cc3ccccc3oc2=O)s1",
    "Discrete label": "active"
  },
  {
    "Compound": "O=C(CSc1nc2ccccc2[nH]1)Nc1nc(-c2ccccc2)c(-c2ccccc2)o1",
    "Discrete label": "inactive"
  },
  {
    "Compound": "Cn1c(NC(=O)c2ccccc2)nc2ccccc21",
    "Discrete label": "active"
  },
  {
    "Compound": "Cc1ccc(OCC(=O)Nc2ccccc2C(=O)NC2CC2)cc1",
    "Discrete label": "inactive"
  },
  {
    "Compound": "COc1cc2c(=O)c(S(=O)(=O)c3ccc(C(C)C)cc3)cn(Cc3ccccc3C)c2cc1OC",
    "Discrete label": "inactive"
  },
  {
    "Compound": "CCN(CC)CCNC(=O)CN1N=C(c2ccc(OC)cc2)CCC1=O",
    "Discrete label": "inactive"
  },
  {
    "Compound": "COc1ccccc1-c1noc(CSc2nc(C)cc(=O)[nH]2)n1",
    "Discrete label": "inactive"
  },
  {
    "Compound": "COc1ccc(N(CC(=O)Nc2cccc3ccccc23)S(C)(=O)=O)c(OC)c1",
    "Discrete label": "inactive"
  },
  {
    "Compound": "COc1ccc(C2=NN(c3nc4ccccc4s3)C(=O)C2)cc1",
    "Discrete label": "active"
  },
  {
    "Compound": "O=C(CN(CC1CCCO1)C(=O)CNS(=O)(=O)c1ccc(F)cc1)NCc1ccco1 (configuration not stated)",
    "Discrete label": "inactive"
  },
  {
    "Compound": "COc1ccc(C2=NN(C(=O)c3cccnc3)C(c3ccccc3)C2)cc1 (configuration not stated)",
    "Discrete label": "inactive"
  },
  {
    "Compound": "Cn1c(S(=O)(=O)O)nc2ccccc21",
    "Discrete label": "inactive"
  },
  {
    "Compound": "CC(=O)c1c(C)n(S(=O)(=O)c2ccc(Cl)cc2)c2ccc(NS(=O)(=O)c3ccc(Cl)cc3)cc12",
    "Discrete label": "inactive"
  },
  {
    "Compound": "O=C(CSc1nc2ccccc2[nH]1)c1cccs1",
    "Discrete label": "active"
  },
  {
    "Compound": "COc1cccc(CNC(=O)Cn2c(=O)c3cccn3c3ccc(F)cc32)c1OC",
    "Discrete label": "inactive"
  },
  {
    "Compound": "COc1cc(CO)ccc1OCC(=O)Nc1cccc2ccccc12",
    "Discrete label": "active"
  },
  {
    "Compound": "O=S(=O)(c1ccc(Cl)cc1)c1nnn2c1nc(NC1CCCC1)c1sccc12",
    "Discrete label": "inactive"
  },
  {
    "Compound": "O=C(NCc1cccnc1)C(=O)NCC(c1cccnc1)N1CCN(c2ccccc2)CC1 (configuration not stated)",
    "Discrete label": "inactive"
  },
  {
    "Compound": "Cc1[nH]c2c(C(=O)N3CCCC(CCC(=O)NCc4ccccc4F)C3)cccc2c1C (configuration not stated)",
    "Discrete label": "inactive"
  }
]
